# STUDY_TARGET: human Cot/Tpl2 kinase (Homo sapiens, UniProt P41279)
# Construct: human Cot/Tpl2 kinase construct encoding residues 30-398; 6His (N); made in house; host or cells: Sf9 insect cells, baculovirus system (BD Biosciences)
# Sequence (P41279 30-398): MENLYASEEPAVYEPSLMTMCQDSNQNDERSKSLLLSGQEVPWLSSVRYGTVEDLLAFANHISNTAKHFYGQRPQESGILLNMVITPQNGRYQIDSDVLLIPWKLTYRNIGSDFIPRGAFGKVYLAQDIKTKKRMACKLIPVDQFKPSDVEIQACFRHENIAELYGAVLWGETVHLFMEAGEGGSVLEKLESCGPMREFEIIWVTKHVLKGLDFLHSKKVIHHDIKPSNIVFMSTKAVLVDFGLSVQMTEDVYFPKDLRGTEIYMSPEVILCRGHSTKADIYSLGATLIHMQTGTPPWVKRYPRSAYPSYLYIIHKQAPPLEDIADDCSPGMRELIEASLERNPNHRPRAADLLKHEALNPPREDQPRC
# ASSAY_EXPLANATION: Tpl2/Cot kinase assay: GST-MEK1 phosphorylation detected by ELISA (DELFIA Eu)
# Type: biochemical
# APPLIED_CONDITIONS: 0.4 nM Tpl2, 35 nM GST-MEK1, 50 uM ATP, 1 h at 30° C.
pIC50: −log10 of the molar value.

MOL_SMILES	pIC50
N#Cc1cccc(CNc2ccc3ncc(C#N)c(NC4CCCCCC4)c3c2)c1	5.60
N#Cc1cnc2c(-c3ccoc3)cc(NCc3cccnc3)cc2c1Nc1ccc(F)c(Cl)c1	5.89
N#Cc1cnc2ccc(NCc3cccc(Cl)c3)cc2c1Nc1ccc(F)c(Cl)c1	5.89
CS(=O)(=O)c1ccc(CNc2cc(Cl)c3ncc(C#N)c(Nc4ccc(F)c(Cl)c4)c3c2)cc1	6.96
CC(C)(C)OC(=O)COc1ccc(C#N)cc1CNc1ccc2ncc(C#N)c(Nc3ccc(F)c(Cl)c3)c2c1	4.83
N#Cc1cnc2c(C(F)(F)F)cc(NCc3cccc[n+]3[O-])cc2c1Nc1ccc(F)c(Cl)c1	6.43
Cc1ncn(CCN2CCOCC2)c1CNc1ccc2ncc(C#N)c(Nc3ccc(F)c(Cl)c3)c2c1	6.59
N#Cc1cnc2c(Br)cc(NCCN3CCOCC3)cc2c1Nc1cccc(Cl)c1	6.38
CN1CCN(S(=O)(=O)c2ccc(CNc3ccc4ncc(C#N)c(Nc5ccc(F)c(Cl)c5)c4c3)cc2)CC1	6.24
N#Cc1cnc2ccc(NCc3ccc([N+](=O)[O-])o3)cc2c1Nc1ccc(F)c(Cl)c1	6.91
Cn1cnc(CNc2cc(Cl)c3ncc(C#N)c(Nc4ccc(F)c(Cl)c4)c3c2)c1	8.04
N#Cc1cnc2c(Cl)cc(NCc3nnn4ccccc34)cc2c1Nc1ccc(F)c(Cl)c1	8.23
Cn1ccnc1CNc1cc(F)c2ncc(C#N)c(Nc3ccc(F)c(Cl)c3)c2c1	7.92
N#Cc1cnc2c(Br)cc(NCc3[nH]nnc3-c3ccccc3)cc2c1Nc1ccc(F)c(Cl)c1	7.92
COc1ncccc1CNc1ccc2ncc(C#N)c(Nc3ccc(F)c(Cl)c3)c2c1	6.96
N#Cc1cnc2ccc(NCC(=O)O)cc2c1Nc1ccc(F)c(Cl)c1	6.51
